- study-target: Gag-Pol polyprotein (Human immunodeficiency virus type 1 group M subtype B (isolate HXB2))
- experiment: RNase H inhibition, HIV 1 Gag Pol polyprotein, FRET biochemical assay, screening (AID 372)
- setup-conditions: HIV-1 RT RNase H, FRET RNA/DNA substrate fluorescence; at 10 µM; hits give high values
Among all 100,000 compounds or so, about 770 (0.77%) were called active. Shown is part of a subset that was picked to be rich in actives.
Criterion: inhibition meeting or surpassing 30%. Met: YES. Not met: NO.

Solved cases below.
CC(C)OC(=O)N1CCN(/C(N)=N/[N+](=O)[O-])CC1 | NO
O=C1NC(=S)N(c2ccccc2)C(=O)/C1=C/c1ccco1 | YES
CN1C(=O)NC(=O)/C(=C/c2ccc(-c3ccc([N+](=O)[O-])cc3Br)o2)C1=O | NO
O=C1NC(=S)NC(=O)C1=Cc1ccc(-c2cc(Cl)ccc2Cl)o1 | NO
Cc1cc(C=C2C(=O)NC(=O)NC2=O)c(C)n1-c1ccc(Br)cc1 | NO
O=C1NC(=S)NC(=O)C1=Cc1ccc(-c2ccc(Br)c(Cl)c2)o1 | YES
Cc1ccc(-c2ccc(C=C3C(=O)NC(=S)NC3=O)o2)c(Br)c1 | YES
O=C1NC(=S)NC(=O)C1=Cc1ccc(-c2cc(Cl)c([N+](=O)[O-])cc2Cl)o1 | YES

Identify whether the reported inhibition of the following compound is 30% or greater: `Cc1cccc(-n2c(/C=C3\C(=O)Nc4ccccc43)nc3ccc(I)cc3c2=O)c1`
NO

Say whether `O=[N+]([O-])c1ccccc1CNCCc1ccc(F)cc1` shows inhibition of 30% or more.
NO

* * *

- study-target: Gag-Pol polyprotein (Human immunodeficiency virus type 1 group M subtype B (isolate HXB2)) (UniProt P04585)
- experiment: RNase H inhibition, HIV 1 Gag Pol polyprotein, FRET biochemical assay, screening (AID 372)
- setup-conditions: HIV-1 RT RNase H, FRET RNA/DNA substrate fluorescence; at 10 µM
The campaign covered roughly 100,000 compounds. About 770 (0.77%) were called active. No stated cut-off is given here; in the data, active means inhibition above about 50%; inactive means the rest. This excerpt belongs to a sample that is enriched for actives.
Reply using exactly one outcome from active, inactive

These recorded examples may help you get a feel for the data.
Cc1ccccc1N1CCN(Cc2ccc(Cl)cc2Cl)CC1 | inactive
O=C1NC(=O)C(=Cc2cn(-c3ccccc3)nc2-c2ccc(F)cc2)C(=O)N1 | active

API: the following record is the query input.
Which outcome was assigned to `CCOc1ccc(C=C2C(=O)NC(=S)NC2=O)cc1` in this test?
inactive

* * *

- study-target: Gag-Pol polyprotein (Human immunodeficiency virus type 1 group M subtype B (isolate HXB2))
- experiment: RNase H inhibition, HIV 1 Gag Pol polyprotein, FRET biochemical assay, screening (AID 372)
- setup-conditions: HIV-1 RT RNase H, FRET RNA/DNA substrate fluorescence; at 10 µM; hits give high values
About 770 (0.77%) of roughly 100,000 compounds were called active. For the sample, actives were picked, then their nearest neighbours and some compounds at random.
Could you label it YES if measured inhibition is 3% or higher, and NO otherwise?

See these solved cases before continuing.
COc1ccc(CN2CCN(CCO)CC2)c(OC)c1 | YES
CCc1ccc(CN2CCN(C(=O)COc3ccc4ccccc4c3)CC2)cc1 | YES

Please tell me: is the compound `Cc1ccccc1CN1CCN(C(=O)COc2ccc3ccccc3c2)CC1` at or over 3% in terms of inhibition?
YES

Answer whether inhibition of `O=C(COc1ccc2ccccc2c1)N1CCN(Cc2ccc(F)cc2)CC1` is greater than or equal to 3%.
NO
